# study-system: hisCD44_HABD^20–169 (Homo sapiens, UniProt P16070)
# Construct: A novel construct consisting of residues 20 to 169 of human CD44 and an N-terminal six-histidine tag; made in house
# Sequence (P16070 20-169): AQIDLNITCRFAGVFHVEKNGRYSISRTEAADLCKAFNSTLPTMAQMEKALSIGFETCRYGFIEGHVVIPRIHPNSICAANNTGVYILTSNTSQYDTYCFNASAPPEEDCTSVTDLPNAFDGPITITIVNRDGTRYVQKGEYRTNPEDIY
# procedure-details: MST of HA oligosaccharides binding to hisCD44_HABD^20–169
# test-context: Table 6; relative to unmodified oligosaccharide of the same length, by MST
experimental-readout: % Binding affinity hisCD44_HABD^20–169 (%)
Give bare numbers, in %.

Solved cases (5 shown):
compound	experimental-readout	measured
CC(=O)N[C@H]1[C@H](O[C@H]2[C@H](O)[C@@H](O)[C@H](O[C@@H]([C@H](O)[C@H](O)CO)[C@H](CNc3cccc(C(=O)O)c3)NC(C)=O)O[C@@H]2C(=O)O)O[C@H](CO)[C@@H](O)[C@@H]1O[C@@H]1O[C@H](C(=O)O)[C@@H](O)[C@H](O)[C@H]1O	% Binding affinity hisCD44_HABD^20–169	260
CC(=O)N[C@H]1[C@H](O[C@H]2[C@H](O)[C@@H](O)[C@H](O[C@H]3[C@H](O)[C@@H](CO)O[C@@H](O[C@H]4[C@H](O)[C@@H](O)[C@H](O[C@H]5[C@H](O)[C@@H](CO)O[C@@H](O[C@H]6[C@H](O)[C@@H](O)[C@H](O[C@@H]([C@H](O)[C@H](O)CO)[C@H](CNc7ccc8c(c7)CCC8)NC(C)=O)O[C@@H]6C(=O)O)[C@@H]5NC(C)=O)O[C@@H]4C(=O)O)[C@@H]3NC(C)=O)O[C@@H]2C(=O)O)O[C@H](CO)[C@@H](O)[C@@H]1O[C@@H]1O[C@H](C(=O)O)[C@@H](O)[C@H](O)[C@H]1O	% Binding affinity hisCD44_HABD^20–169	96
CC(=O)N[C@H]1[C@H](O[C@H]2[C@H](O)[C@@H](O)[C@H](O[C@H]3[C@H](O)[C@@H](CO)O[C@@H](O[C@H]4[C@H](O)[C@@H](O)[C@H](O[C@H]5[C@H](O)[C@@H](CO)OC(O)[C@@H]5NC(C)=O)O[C@@H]4C(=O)O)[C@@H]3NC(C)=O)O[C@@H]2C(=O)O)O[C@H](CO)[C@@H](O)[C@@H]1O[C@@H]1O[C@H](C(=O)O)[C@@H](O)[C@H](O)[C@H]1O (stereo partly drawn) [HA6^AN, reference compound]	% Binding affinity hisCD44_HABD^20–169	100
COc1ccc(C(=O)O)c(NC[C@H](NC(C)=O)[C@@H](O[C@@H]2O[C@H](C(=O)O)[C@@H](O[C@@H]3O[C@H](CO)[C@@H](O)[C@H](O[C@@H]4O[C@H](C(=O)O)[C@@H](O[C@@H]5O[C@H](CO)[C@@H](O)[C@H](O[C@@H]6O[C@H](C(=O)O)[C@@H](O[C@@H]7O[C@H](CO)[C@@H](O)[C@H](O[C@@H]8O[C@H](C(=O)O)[C@@H](O)[C@H](O)[C@H]8O)[C@H]7NC(C)=O)[C@H](O)[C@H]6O)[C@H]5NC(C)=O)[C@H](O)[C@H]4O)[C@H]3NC(C)=O)[C@H](O)[C@H]2O)[C@H](O)[C@H](O)CO)c1	% Binding affinity hisCD44_HABD^20–169	141
CC(=O)N[C@H]1[C@H](O[C@H]2[C@H](O)[C@@H](O)[C@H](O[C@H]3[C@H](O)[C@@H](CO)O[C@@H](O[C@H]4[C@H](O)[C@@H](O)[C@H](O[C@H]5[C@H](O)[C@@H](CO)O[C@@H](O[C@H]6[C@H](O)[C@@H](O)[C@H](O[C@H]7[C@H](O)[C@@H](CO)OC(O)[C@@H]7NC(C)=O)O[C@@H]6C(=O)O)[C@@H]5NC(C)=O)O[C@@H]4C(=O)O)[C@@H]3NC(C)=O)O[C@@H]2C(=O)O)O[C@H](CO)[C@@H](O)[C@@H]1O[C@@H]1O[C@H](C(=O)O)[C@@H](O)[C@H](O)[C@H]1O (stereo partly drawn) [HA8^AN, reference compound]	% Binding affinity hisCD44_HABD^20–169	100

Let us move to another entry and its % Binding affinity hisCD44_HABD^20–169.
Input line: Find the measured % Binding affinity hisCD44_HABD^20–169: item CC(=O)N[C@H]1[C@H](O[C@H]2[C@H](O)[C@@H](O)[C@H](O[C@H]3[C@H](O)[C@@H](CO)O[C@@H](O[C@H]4[C@H](O)[C@@H](O)[C@H](O[C@H]5[C@H](O)[C@@H](CO)O[C@@H](O[C@H]6[C@H](O)[C@@H](O)[C@H](O[C@@H]([C@H](O)[C@H](O)CO)[C@H](CNc7cc[nH]n7)NC(C)=O)O[C@@H]6C(=O)O)[C@@H]5NC(C)=O)O[C@@H]4C(=O)O)[C@@H]3NC(C)=O)O[C@@H]2C(=O)O)O[C@H](CO)[C@@H](O)[C@@H]1O[C@@H]1O[C@H](C(=O)O)[C@@H](O)[C@H](O)[C@H]1O , target or system hisCD44_HABD^20–169 (Homo sapiens, UniProt P16070).
Output line: 23
